Tested on: OCI-AML2;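 further: after 48 h exposure read by CellTiter-Glo luminescence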
testDetails: cell viability relative to vehicle control; higher = less cytotoxic
reportedConditions: 10 µM; SRSF2 genotype: wt/wt
Structures can show the parent of a compound that is named as a salt.
Field: label. Allowed values: Condition met (cell viability < 50%) or Condition not met (cell viability >= 50%).

[
  {
    "compound": "COc1c(C)cnc(Cn2cnc3c(Cl)nc(N)nc32)c1C",
    "classLabel": "Condition met"
  },
  {
    "compound": "CC(C)C[C@H](NP(=O)(O)O[C@@H]1O[C@@H](C)[C@H](O)[C@@H](O)[C@H]1O)C(=O)N[C@@H](Cc1c[nH]c2ccccc12)C(=O)O [Phosphoramidon Disodium Salt]",
    "classLabel": "Condition not met"
  },
  {
    "compound": "C[C@@H]1O[C@@H](O[C@@H]2[C@@H](O)[C@H](OCCc3ccc(O)c(O)c3)O[C@H](CO)[C@H]2OC(=O)/C=C/c2ccc(O)c(O)c2)[C@H](O)[C@H](O)[C@H]1O [Verbascoside]",
    "classLabel": "Condition not met"
  },
  {
    "compound": "Cc1cccc(-c2nn3c(c2-c2ccnc4ccc(C(N)=O)cc24)CCC3)n1",
    "classLabel": "Condition not met"
  },
  {
    "compound": "COCCOC(=O)C1=C(C)NC(C)=C(C(=O)OC(C)C)C1c1cccc([N+](=O)[O-])c1 (configuration not stated) [Nimodipine (Nimotop)]",
    "classLabel": "Condition not met"
  },
  {
    "compound": "C[C@@H]([C@H](C)O)[C@H](N)C(=O)O [(4S)-4-Hydroxy-L-isoleucine]",
    "classLabel": "Condition not met"
  },
  {
    "compound": "FC(F)(F)c1ccc(/C=C/c2nc(COc3ccc(CCCCn4ccnn4)cc3)co2)cc1 [Mubritinib (TAK 165)]",
    "classLabel": "Condition met"
  },
  {
    "compound": "O=c1c(O)c(-c2ccc(O)cc2O)oc2cc(O)cc(O)c12 [Morin hydrate (Aurantica)]",
    "classLabel": "Condition not met"
  },
  {
    "compound": "CCOC(=O)[C@H](CCc1ccccc1)N[C@H]1CS[C@H](c2cccs2)CN(CC(=O)O)C1=O [Temocapril HCl]",
    "classLabel": "Condition not met"
  },
  {
    "compound": "C[C@@H]1O[C@@H](O[C@H]2[C@H](O[C@H]3CC[C@@]4(C)[C@@H](CC[C@]5(C)[C@@H]4CC=C4[C@@H]6CC(C)(C)CC[C@]6(C(=O)O[C@@H]6O[C@H](CO[C@@H]7O[C@H](CO)[C@@H](O)[C@H](O)[C@H]7O)[C@@H](O)[C@H](O)[C@H]6O)CC[C@]45C)[C@]3(C)CO)OC[C@H](O)[C@@H]2O)[C@H](O)[C@H](O[C@@H]2O[C@H](CO)[C@@H](O[C@@H]3O[C@H](CO)[C@@H](O)[C@H](O)[C@H]3O)[C@H](O)[C@H]2O)[C@H]1O [Macranthoidin B]",
    "classLabel": "Condition not met"
  },
  {
    "compound": "Cc1cncc(CN2CCC(=C3c4ccc(Cl)cc4CCc4cccnc43)CC2)c1 [Rupatadine Fumarate]",
    "classLabel": "Condition met"
  },
  {
    "compound": "Cc1c(CN2CCN(C(=O)[C@H](C)O)CC2)sc2c(N3CCOCC3)nc(-c3cnc(N)nc3)nc12 [Apitolisib (GDC-0980, RG7422)]",
    "classLabel": "Condition met"
  }
]

The origin of these recorded values is the supplement of paper PMC10981050.
